- System: HCV genotype 1b replicon
- Test details: HCV replicon assay, genotype 1b replicon EC50
- Assay type: cell-based, Hepatitis C virus
- Condition set: Hepatitis C virus, HCV replicon, genotype 1b; read-out: EC50 [gt-1b]
Measured quantity: pEC50
Bear in mind: pEC50 is minus log10 of a mol/L concentration; give just that figure.

Here is how some compounds turned out for pEC50.
• CCCOC(=O)N[C@H]1CCCCC/C=C\[C@@H]2C[C@@]2(C(=O)NS(=O)(=O)C2(C)CC2)NC(=O)[C@@H]2C[C@]3(CCc4c(c(C(F)(F)F)nc5ccc(OC)cc45)O3)CN2C1=O [Example 448] = 8.57
• COc1ccc2nc(C(F)(F)F)c3c(c2c1)CC[C@]1(C[C@H]2C(=O)N[C@]4(C(=O)NS(=O)(=O)C5(C)CC5)C[C@H]4/C=C\CCCCC[C@H](NC(=O)OC4CCC4)C(=O)N2C1)O3 [Example 450] = 8.77
• COc1ccc2nc(C)c3c(c2n1)CC[C@]1(C[C@H]2C(=O)N[C@]4(C(=O)NS(=O)(=O)C5(C)CC5)C[C@H]4/C=C\CCCCC[C@H](NC(=O)OCC(C)(C)C)C(=O)N2C1)O3 [Example 361] = 8.35

The recorded pEC50 for COc1ccc2nc(C)c3c(c2n1)[C@H](F)C[C@]1(C[C@H]2C(=O)N[C@]4(C(=O)NS(=O)(=O)C5(C)CC5)C[C@H]4/C=C\CCCCC[C@H](NC(=O)OC(C)(C)C)C(=O)N2C1)O3 [Example 374] is 8.64

The recorded pEC50 for COc1ccc2nc(C(F)F)c3c(c2n1)CC[C@]1(C[C@H]2C(=O)N[C@]4(C(=O)NS(=O)(=O)C5(C)CC5)C[C@H]4/C=C\CCCCC[C@H](NC(=O)OCC(C)(C)C)C(=O)N2C1)O3 [Example 526] is 8.59

====

- Tested target: HCV NS3/4A protease genotype 1b (Hepatitis C virus genotype 1b)
- Sequence (P26663 1027-1657): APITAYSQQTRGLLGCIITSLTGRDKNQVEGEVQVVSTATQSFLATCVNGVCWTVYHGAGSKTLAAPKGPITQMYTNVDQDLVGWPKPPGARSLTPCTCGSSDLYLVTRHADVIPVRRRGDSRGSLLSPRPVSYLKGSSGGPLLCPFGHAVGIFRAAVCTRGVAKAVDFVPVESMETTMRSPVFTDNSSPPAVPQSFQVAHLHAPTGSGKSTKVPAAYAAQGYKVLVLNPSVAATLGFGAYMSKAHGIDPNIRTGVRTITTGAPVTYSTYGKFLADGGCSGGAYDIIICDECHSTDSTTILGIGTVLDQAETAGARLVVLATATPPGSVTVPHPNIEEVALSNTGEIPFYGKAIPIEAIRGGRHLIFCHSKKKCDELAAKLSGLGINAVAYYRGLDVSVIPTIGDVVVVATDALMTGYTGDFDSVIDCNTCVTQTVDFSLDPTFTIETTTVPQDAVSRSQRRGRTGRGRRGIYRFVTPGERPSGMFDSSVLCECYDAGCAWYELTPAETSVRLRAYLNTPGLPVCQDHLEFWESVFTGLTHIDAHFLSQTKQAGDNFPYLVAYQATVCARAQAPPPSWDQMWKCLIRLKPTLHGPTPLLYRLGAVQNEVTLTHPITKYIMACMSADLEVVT
- Sequence (P26663 1658-1711): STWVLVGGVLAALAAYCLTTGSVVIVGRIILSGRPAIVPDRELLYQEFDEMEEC
- Test details: HCV NS3/4A protease time-resolved fluorescence (TRF) assay, Ki against genotype 1b
- Type: biochemical
- Condition set: IC50 [gt-1b] (nM), NS3/4A genotype 1b, enzyme 0.2 nM
Measured IC50 values are reported for all entries that follow.

Here is how some compounds turned out for IC50.
- Cc1nc2c(F)cccc2c2c1O[C@]1(CC2)C[C@H]2C(=O)N[C@]3(C(=O)NS(=O)(=O)C4CC4)C[C@H]3/C=C\CCCCC[C@H](NC(=O)OC(C)(C)C)C(=O)N2C1: 0.014 nM
- COc1ccc2nc(C(C)C)c3c(c2c1)[C@H](F)C[C@]1(C[C@H]2C(=O)N[C@]4(C(=O)NS(=O)(=O)C5(C)CC5)C[C@H]4/C=C\CCCCC[C@H](NC(=O)OC(C)(C)C)C(=O)N2C1)O3: 0.024 nM

Read the next record carefully.
The recorded IC50 for Cc1nc2ccc(OCC(F)(F)F)cc2c2c1O[C@]1(CC2)C[C@H]2C(=O)N[C@]3(C(=O)NS(=O)(=O)C4(C)CC4)C[C@H]3/C=C\CCCCC[C@H](NC(=O)OC3(C)CCCC3)C(=O)N2C1 is 0.006 nM

====

- Tested target: HCV NS3/4A protease genotype 1b (Hepatitis C virus genotype 1b)
- Test details: HCV NS3/4A protease time-resolved fluorescence (TRF) assay, Ki against genotype 1b
- Format: biochemical
- Condition set: IC50 [gt-1b] (nM), NS3/4A genotype 1b, enzyme 0.2 nM
Measured quantity: IC50 (nM)
Kindly provide the numeric value in nM only, without the unit symbol.

Here is how some compounds turned out for IC50.
- CC(C)(C)COC(=O)N[C@H]1CCCCC/C=C\[C@@H]2C[C@@]2(C(=O)NS(=O)(=O)C2(C)CC2)NC(=O)[C@@H]2C[C@]3(CCc4c(c(C5CC5)nc5ccc6c(c45)OCO6)O3)CN2C1=O [Example 324]: 0.022
- Cc1ccc2nc(C)c3c(c2c1)CC[C@]1(C[C@H]2C(=O)NC4(C(=O)NS(=O)(=O)C5(C)CC5)C[C@H]4/C=C\CCCCC[C@H](NC(=O)OC(C)(C)C)C(=O)N2C1)O3 (some centres unmarked) [Example 42]: 0.008
- Cc1nc2ccc(OC(F)(F)F)cc2c2c1O[C@@]1(C[C@H]3C(=O)N[C@]4(C(=O)NS(=O)(=O)C5(C)CC5)C[C@H]4/C=C\CCCCC[C@H](NC(=O)OC(C)(C)C)C(=O)N3C1)CC2(F)F [Example 220]: 0.033

The recorded IC50 for CC1(S(=O)(=O)NC(=O)[C@@]23C[C@H]2/C=C\CCCCC[C@H](NC(=O)OC2(C4CC4)CC2)C(=O)N2C[C@@]4(CCc5c(c(C6CC6)nc6c(F)cccc56)O4)C[C@H]2C(=O)N3)CC1 [Example 191] is 0.012

The recorded IC50 for Cc1nc2ccc(OCC(F)(F)F)cc2c2c1O[C@]1(CC2)C[C@H]2C(=O)N[C@]3(C(=O)NS(=O)(=O)C4(C)CC4)C[C@H]3/C=C\CCCCC[C@H](NC(=O)OC(C)(C(F)(F)F)C(F)(F)F)C(=O)N2C1 [Example 308] is 0.006

Measured values drawn from patent US8987195B2 for this set.
